Would you mind telling me the reported pIC50 of each entry?
target: acetylcholinesterase (AChE) (Homo sapiens, UniProt P22303); construct: purchased Sigma 9000-81-1 (so in the source); this is the CAS number of acetylcholinesterase, not a catalogue number; assay: biochemical; conditions: substrate ATCh, DTNB, pH 8.0, 15 min incubation; read-out: AChE IC50 ± SEM
Sequence (P22303 32-614): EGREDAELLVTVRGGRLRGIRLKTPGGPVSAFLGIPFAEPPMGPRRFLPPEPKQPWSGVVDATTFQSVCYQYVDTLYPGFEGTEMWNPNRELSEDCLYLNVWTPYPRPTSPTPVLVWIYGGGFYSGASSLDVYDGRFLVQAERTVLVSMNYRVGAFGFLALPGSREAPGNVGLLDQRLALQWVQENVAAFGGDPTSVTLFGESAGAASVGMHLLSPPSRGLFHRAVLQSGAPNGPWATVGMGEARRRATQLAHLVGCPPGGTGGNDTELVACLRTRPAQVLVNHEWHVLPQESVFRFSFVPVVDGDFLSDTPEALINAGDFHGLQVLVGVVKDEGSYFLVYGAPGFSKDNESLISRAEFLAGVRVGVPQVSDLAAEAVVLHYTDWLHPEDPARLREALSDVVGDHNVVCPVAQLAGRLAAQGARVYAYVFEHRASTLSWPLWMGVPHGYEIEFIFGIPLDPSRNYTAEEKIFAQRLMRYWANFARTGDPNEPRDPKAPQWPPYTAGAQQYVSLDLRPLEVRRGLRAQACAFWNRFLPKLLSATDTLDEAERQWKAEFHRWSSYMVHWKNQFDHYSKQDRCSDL
pIC50 here is simply -log10 of the concentration when that concentration is written in mol/L.

Look up pIC50 for this compound: O=C1N/C(=N/c2nnc(-c3ccc4[nH]ncc4c3)s2)S/C1=C/c1ccc(Br)c([N+](=O)[O-])c1 [Compound 17]
4.65

Look up pIC50 for this compound: O=C1N/C(=N/c2nnc(-c3ccc4[nH]ncc4c3)s2)S/C1=C/c1ccc([N+](=O)[O-])cc1 [Compound 7]
5.85

Look up pIC50 for this compound: Cc1cc(C)cc(/C=C2/S/C(=N\c3nnc(-c4ccc5[nH]ncc5c4)s3)NC2=O)c1 [Compound 4]
5.07

Look up pIC50 for this compound: O=C1N/C(=N/c2nnc(-c3ccc4[nH]ncc4c3)s2)S/C1=C/c1ccc(Br)cc1 [Compound 10]
4.61

Look up pIC50 for this compound: Cc1cc(Br)cc(/C=C2/S/C(=N\c3nnc(-c4ccc5[nH]ncc5c4)s3)NC2=O)c1 [Compound 12]
4.60

Look up pIC50 for this compound: O=C1N/C(=N/c2nnc(-c3ccc4[nH]ncc4c3)s2)S/C1=C/c1ccc(Cl)c(Cl)c1 [Compound 8]
5.91

* * *

molecular target: acetylcholinesterase (AChE) (Homo sapiens); construct: purchased Sigma 9000-81-1 (so in the source); this is the CAS number of acetylcholinesterase, not a catalogue number; test: biochemical; settings: printed without unit in text / Figure 2; read-out: AChE IC50
Label y when IC50 < 0.9 µM; otherwise n.

IC50 under 0.9 µM? Item: "O=C1N/C(=N/c2nnc(-c3ccc4[nH]ncc4c3)s2)S/C1=C/c1ccc(Br)c([N+](=O)[O-])c1"
n

IC50 under 0.9 µM? Item: "O=C1N/C(=N/c2nnc(-c3ccc4[nH]ncc4c3)s2)S/C1=C/c1ccccc1Cl"
n

IC50 under 0.9 µM? Item: "O=C1N/C(=N/c2nnc(-c3ccc4[nH]ncc4c3)s2)S/C1=C/c1ccc(C(F)(F)F)cc1"
y

IC50 under 0.9 µM? Item: "O=C1N/C(=N/c2nnc(-c3ccc4[nH]ncc4c3)s2)S/C1=C/c1ccc(Br)cc1"
n

* * *

Would you mind telling me the reported pIC50 of each entry?
biological target: acetylcholinesterase (AChE) (Homo sapiens); construct: purchased Sigma 9000-81-1 (so in the source); this is the CAS number of acetylcholinesterase, not a catalogue number; test: biochemical; settings: substrate ATCh, DTNB, pH 8.0, 15 min incubation; read-out: AChE IC50 ± SEM
pIC50 here is simply -log10 of the concentration when that concentration is written in mol/L.

Look up pIC50 for this molecule: O=C1N/C(=N/c2nnc(-c3ccc4[nH]ncc4c3)s2)S/C1=C/c1cccc(Br)c1 [Compound 11]
4.57

Look up pIC50 for this molecule: O=C1N/C(=N/c2nnc(-c3ccc4[nH]ncc4c3)s2)S/C1=C/c1ccc(C(F)(F)F)cc1 [Compound 9]
6.07

Look up pIC50 for this molecule: COc1ccc(/C=C2/S/C(=N\c3nnc(-c4ccc5[nH]ncc5c4)s3)NC2=O)cc1 [Compound 5]
4.98

Look up pIC50 for this molecule: Cc1ccc(/C=C2/S/C(=N\c3nnc(-c4ccc5[nH]ncc5c4)s3)NC2=O)c(C)c1 [Compound 3]
5.08

* * *

Would you mind telling me the reported pIC50 of each entry?
target: acetylcholinesterase (AChE) (Homo sapiens, UniProt P22303); construct: purchased Sigma 9000-81-1 (so in the source); this is the CAS number of acetylcholinesterase, not a catalogue number; test: biochemical; settings: substrate ATCh, DTNB, pH 8.0, 15 min incubation; read-out: AChE IC50 ± SEM
pIC50 here is simply -log10 of the concentration when that concentration is written in mol/L.

Look up pIC50 for this molecule: COc1cccc(/C=C2/S/C(=N\c3nnc(-c4ccc5[nH]ncc5c4)s3)NC2=O)c1 [Compound 6]
4.90

Look up pIC50 for this molecule: O=C1N/C(=N/c2nnc(-c3ccc4[nH]ncc4c3)s2)S/C1=C/c1ccccc1Cl [Compound 2]
5.51

Look up pIC50 for this molecule: O=C1N/C(=N/c2nnc(-c3ccc4[nH]ncc4c3)s2)S/C1=C/c1ccccc1F [Compound 15]
5.91

Look up pIC50 for this molecule: O=C1N/C(=N/c2nnc(-c3ccc4[nH]ncc4c3)s2)S/C1=C/c1cccc(F)c1 [Compound 16]
5.92

* * *

target: butyrylcholinesterase (BuChE) (Homo sapiens, UniProt P06276); construct: purchased Sigma 9001-08-5 (this is the CAS number of cholinesterase, not a catalogue number); test: biochemical; settings: substrate BTCh, DTNB, pH 8.0, 15 min incubation; read-out: BuChE IC50 ± SEM
Sequence (P06276 29-602): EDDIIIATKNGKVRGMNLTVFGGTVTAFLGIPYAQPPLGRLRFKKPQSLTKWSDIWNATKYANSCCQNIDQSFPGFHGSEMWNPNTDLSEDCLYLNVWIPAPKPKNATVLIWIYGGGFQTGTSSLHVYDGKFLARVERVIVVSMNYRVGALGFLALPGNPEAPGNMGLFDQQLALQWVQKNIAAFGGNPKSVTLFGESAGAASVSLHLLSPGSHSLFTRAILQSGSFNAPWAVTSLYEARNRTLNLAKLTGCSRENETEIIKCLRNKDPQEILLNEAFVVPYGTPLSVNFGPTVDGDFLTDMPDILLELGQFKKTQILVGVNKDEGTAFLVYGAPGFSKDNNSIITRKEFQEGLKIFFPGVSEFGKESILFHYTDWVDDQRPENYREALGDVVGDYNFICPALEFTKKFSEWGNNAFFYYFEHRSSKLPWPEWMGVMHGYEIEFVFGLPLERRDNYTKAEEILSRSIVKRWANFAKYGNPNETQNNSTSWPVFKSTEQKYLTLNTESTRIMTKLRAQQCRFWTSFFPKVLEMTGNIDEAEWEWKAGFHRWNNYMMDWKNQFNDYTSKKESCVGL
measuredEndpoint: IC50 (µM)
Lab book: enter the figure in µM, no units written.

Look up IC50 for this molecule: "COc1ccc(/C=C2/S/C(=N\c3nnc(-c4ccc5[nH]ncc5c4)s3)NC2=O)cc1"
10.6

Look up IC50 for this molecule: "O=C1N/C(=N/c2nnc(-c3ccc4[nH]ncc4c3)s2)S/C1=C/c1ccc(C(F)(F)F)cc1"
0.89

Look up IC50 for this molecule: "Cc1cc(C)cc(/C=C2/S/C(=N\c3nnc(-c4ccc5[nH]ncc5c4)s3)NC2=O)c1"
8.84

Look up IC50 for this molecule: "O=C1N/C(=N/c2nnc(-c3ccc4[nH]ncc4c3)s2)S/C1=C/c1cccc(F)c1"
1.2

* * *

target: butyrylcholinesterase (BuChE) (Homo sapiens); construct: purchased Sigma 9001-08-5 (this is the CAS number of cholinesterase, not a catalogue number); test: biochemical; conditions: substrate BTCh, DTNB, pH 8.0, 15 min incubation; read-out: BuChE IC50 ± SEM
Label MET when IC50 < 10 µM; otherwise NOT MET.

IC50 under 10 µM? Item: O=C1N/C(=N/c2nnc(-c3ccc4[nH]ncc4c3)s2)S/C1=C/c1ccc(Br)c([N+](=O)[O-])c1 [Compound 17]
NOT MET

IC50 under 10 µM? Item: O=C1N/C(=N/c2nnc(-c3ccc4[nH]ncc4c3)s2)S/C1=C/c1cccc(Br)c1 [Compound 11]
NOT MET

IC50 under 10 µM? Item: Cc1ccc(/C=C2/S/C(=N\c3nnc(-c4ccc5[nH]ncc5c4)s3)NC2=O)c(C)c1 [Compound 3]
MET

IC50 under 10 µM? Item: O=C1N/C(=N/c2nnc(-c3ccc4[nH]ncc4c3)s2)S/C1=C/c1ccc(Cl)c(Cl)c1 [Compound 8]
MET

IC50 under 10 µM? Item: COc1cccc(/C=C2/S/C(=N\c3nnc(-c4ccc5[nH]ncc5c4)s3)NC2=O)c1 [Compound 6]
NOT MET

IC50 under 10 µM? Item: O=C1N/C(=N/c2nnc(-c3ccc4[nH]ncc4c3)s2)S/C1=C/c1ccc(Br)cc1 [Compound 10]
NOT MET

IC50 under 10 µM? Item: O=C1N/C(=N/c2nnc(-c3ccc4[nH]ncc4c3)s2)S/C1=C/c1ccccc1F [Compound 15]
MET

IC50 under 10 µM? Item: Cc1cc(Br)cc(/C=C2/S/C(=N\c3nnc(-c4ccc5[nH]ncc5c4)s3)NC2=O)c1 [Compound 12]
NOT MET

IC50 under 10 µM? Item: O=C1N/C(=N/c2nnc(-c3ccc4[nH]ncc4c3)s2)S/C1=C/c1ccccc1Cl [Compound 2]
MET

IC50 under 10 µM? Item: O=C1N/C(=N/c2nnc(-c3ccc4[nH]ncc4c3)s2)S/C1=C/c1ccc([N+](=O)[O-])cc1 [Compound 7]
MET

* * *

Target: acetylcholinesterase (AChE) (Homo sapiens, UniProt P22303)
Construct: purchased Sigma 9000-81-1 (so in the source); this is the CAS number of acetylcholinesterase, not a catalogue number
Experiment: biochemical
Conditions: printed without unit in text / Figure 2; read-out: AChE IC50
Procedure: A spectrophotometric analysis was conducted by Ellman et al. to determine the inhibition of ChEs (AChE and BuChE). […] A percentage of inhibition was calculated using the ratio of enzyme activity in the presence of the test sample (E), minus enzyme activity without the test sample (S), expressed as E–S/E100. Each substance’s inhibition of substrate hydrolysis by ChE was quantified using its IC50 value (g/mL) or M. Compounds with the same IC50 values are calculated using the same standardized plot.
Would you mind telling me the reported IC50 of each entry?
Lab book: enter the figure in µM, no units written.

Look up IC50 for this compound: "O=C1N/C(=N/c2nnc(-c3ccc4[nH]ncc4c3)s2)S/C1=C/c1ccccc1F"
1.24

Look up IC50 for this compound: "COc1cccc(/C=C2/S/C(=N\c3nnc(-c4ccc5[nH]ncc5c4)s3)NC2=O)c1"
12.7

Look up IC50 for this compound: "COc1ccc(/C=C2/S/C(=N\c3nnc(-c4ccc5[nH]ncc5c4)s3)NC2=O)cc1"
10.4

Look up IC50 for this compound: "Cc1cc(C)cc(/C=C2/S/C(=N\c3nnc(-c4ccc5[nH]ncc5c4)s3)NC2=O)c1"
8.6

Look up IC50 for this compound: "Cc1ccc(/C=C2/S/C(=N\c3nnc(-c4ccc5[nH]ncc5c4)s3)NC2=O)c(C)c1"
8.26
